These data points were gathered from patent US10597388B2.

# Test system: kochia (Kochia scoparia)
# Experiment Summary: Test A greenhouse herbicide test, pre- and postemergence
# Assay type: in vivo
# Condition Notes: Postemergence, 500 g ai/ha; visual rating after approx. 10 d, 0 to 100 scale (0 no effect, 100 complete control)
Each record here notes measured Plant response rating, Kochia.
Please respond with just the number, no unit label.

Give the reported Plant response rating, Kochia for "Cc1nn(C)c(=O)c(-c2cccc3ccc(Br)cc23)c1O" (system: kochia (Kochia scoparia)).
90

Give the reported Plant response rating, Kochia for "Cc1nn(C)c(=O)c(-c2c([N+](=O)[O-])ccc3ccccc23)c1OC(=O)C1CC1" (system: kochia (Kochia scoparia)).
70

Give the reported Plant response rating, Kochia for "Cc1ccc2ccccc2c1-c1c(O)c(C(F)(F)F)nn(C)c1=O" (system: kochia (Kochia scoparia)).
40

====

# System: wheat (winter wheat, Triticum aestivum)
# Experiment Summary: Test C greenhouse herbicide test, pre- and postemergence
# Assay type: in vivo
# Condition Notes: Postemergence, 250 g ai/ha; scale 0 to 100, 0 no effect, 100 complete control; 13 to 15 d
Each record here notes measured Plant response rating, Wheat.
Please respond with just the number, no unit label.

Before answering, review these 5 worked examples.
Cc1ccc2sc(Br)c(-c3c(O)c(C)nn(C)c3=O)c2c1 0
CCc1sc2ccc(C)cc2c1-c1c(O)c(C)nn(C)c1=O 0
CC(=O)Oc1c(C)nn(C)c(=O)c1-c1c(C)cc(C)c2ccccc12 10
COC(=O)Oc1cnn(C)c(=O)c1-c1c(C)sc2ccccc12 0
COC(=O)Oc1c(OC)nn(C)c(=O)c1-c1c(C)ccc2ccccc12 90

So what's the measured Plant response rating, Wheat for this one? "Cc1nn(C)c(=O)c(-c2ccc(Br)c3ccccc23)c1O"
0

So what's the measured Plant response rating, Wheat for this one? "Cc1ccc2sc(C)c(-c3c(OC(=O)OC(C)C)c(C)nn(C)c3=O)c2c1"
0

So what's the measured Plant response rating, Wheat for this one? "Cc1cc(C)c2sc(C)c(-c3c(O)c(C)nn(C)c3=O)c2c1"
5

So what's the measured Plant response rating, Wheat for this one? "Cc1ccc2ccccc2c1-c1c(O)c(C(F)(F)F)nn(C)c1=O"
5

====

# Test system: blackgrass (Alopecurus myosuroides)
# Experiment Summary: Test C greenhouse herbicide test, pre- and postemergence
# Type: in vivo
# Condition Notes: Postemergence, 31 g ai/ha; scale 0 to 100 (0 no effect, 100 complete control)
Readout Name: Plant response rating, Blackgrass

Before answering, review these 3 worked examples.
COC(=O)Oc1c(C)nn(C)c(=O)c1-c1ccc(Br)c2ccccc12 5
Cc1nn(C)c(=O)c(-c2c(C)sc3ccc(C(F)(F)F)cc23)c1O 0
CCCC(=O)Oc1c(C)nn(C)c(=O)c1-c1c(C)sc2ccc(C)cc12 15

Proceeding to the next compound to report its Plant response rating, Blackgrass.
So what's the measured Plant response rating, Blackgrass for this one? "COC(=O)Oc1c(C)nn(C)c(=O)c1-c1ccc(F)c2ccccc12"
30

====

Each record here notes measured Plant response rating, Kochia.
# System: kochia (Kochia scoparia)
# Experiment Summary: Test D controlled growth environment herbicide test, pre- and postemergence
# Format: in vivo
# Condition Notes: Preemergence, 125 g ai/ha; scale 0 to 100 (0 no effect, 100 complete control)

Give the reported Plant response rating, Kochia for "CC(=O)Oc1c(C)nn(C)c(=O)c1-c1c(C)sc2ccc(Cl)cc12" (system: kochia (Kochia scoparia)).
80

Give the reported Plant response rating, Kochia for "Cn1nc(Br)c(O)c(-c2cccc3ccccc23)c1=O" (system: kochia (Kochia scoparia)).
70

====

Each record here notes measured Plant response rating, Galium.
# Tested on: galium (catchweed bedstraw, Galium aparine)
# Experiment Summary: Test D controlled growth environment herbicide test, pre- and postemergence
# Format: in vivo
# Condition Notes: Preemergence, 250 g ai/ha; scale 0 to 100, 0 no effect, 100 complete control

Cc1nn(C)c(=O)c(-c2cccc3ccc(Br)cc23)c1O 98
Cc1ccc2sc(C)c(-c3c(OC(=O)OC(C)C)c(C)nn(C)c3=O)c2c1 75
CCc1sc2ccc(C)cc2c1-c1c(O)c(C)nn(C)c1=O 100
Cc1nn(C)c(=O)c(-c2ccc(F)c3ccccc23)c1O 100

So what's the measured Plant response rating, Galium for this one? "Cc1nn(C)c(=O)c(-c2c(C)sc3c(C)cc(Cl)cc23)c1O"
100

====

# System: ragweed (common ragweed, Ambrosia elatior)
# Experiment Summary: Test C greenhouse herbicide test, pre- and postemergence
# Assay type: in vivo
# Condition Notes: Preemergence, 250 g ai/ha; scale 0 to 100, 0 no effect, 100 complete control
Readout Name: Ragweed plant response rating
Please respond with just the number, no unit label.

CCCC(=O)Oc1c(C)nn(C)c(=O)c1-c1c(CC)sc2ccc(C)cc12 100
Cc1nn(C)c(=O)c(-c2cccc3ccccc23)c1O 90
Cc1nn(C)c(=O)c(-c2ccc(Br)c3ccccc23)c1O 100
COC(=O)Oc1c(C)nn(C)c(=O)c1-c1c(C)sc2ccc(C)cc12 100
Cc1cc2ccccc2c(-c2c(O)c(C)nn(C)c2=O)c1C 95

So what's the measured Ragweed plant response rating for this one? "Cc1nn(C)c(=O)c(-c2c(C)sc3ccc(Br)cc23)c1O"
100

So what's the measured Ragweed plant response rating for this one? "CCc1sc2ccc(C)cc2c1-c1c(O)c(C)nn(C)c1=O"
100

So what's the measured Ragweed plant response rating for this one? "COC(=O)Oc1cnn(C)c(=O)c1-c1c(C)sc2ccccc12"
10

So what's the measured Ragweed plant response rating for this one? "CCC(=O)Oc1c(OC)nn(C)c(=O)c1-c1c(C)sc2ccc(Cl)cc12"
98

====

Each record here notes measured Plant response rating, Blackgrass.
# Test system: blackgrass (Alopecurus myosuroides)
# Experiment Summary: Test D controlled growth environment herbicide test, pre- and postemergence
# Assay type: in vivo
# Condition Notes: Postemergence, 250 g ai/ha; scale 0 to 100 (0 no effect, 100 complete control)
Please respond with just the number, no unit label.

Before answering, review these 5 worked examples.
Molecule	Plant response rating, Blackgrass
Cc1ccc2sc(Br)c(-c3c(O)c(C)nn(C)c3=O)c2c1 [Compound 79]	50
Cc1ccc2ccccc2c1-c1c(O)c(Br)nn(C)c1=O [Compound 23]	80
CCCC(=O)Oc1c(C)nn(C)c(=O)c1-c1c(C)sc2ccc(C)cc12 [Compound 105]	65
CCc1sc2ccc(C)cc2c1-c1c(O)c(C)nn(C)c1=O [Compound 47]	65
Cc1nn(C)c(=O)c(-c2c(C)sc3c(C)cc(Cl)cc23)c1O [Compound 35]	85

Proceeding to the next molecule to report its Plant response rating, Blackgrass.
So what's the measured Plant response rating, Blackgrass for this one? COC(=O)Oc1c(C)nn(C)c(=O)c1-c1c(C)sc2ccc(C)cc12 [Compound 80]
90

====

# Tested on: foxtail, giant (giant foxtail, Setaria faberii)
# Experiment Summary: Test A greenhouse herbicide test, pre- and postemergence
# Format: in vivo
# Condition Notes: Postemergence, 500 g ai/ha; 0 to 100 scale, 0 is no effect, 100 is complete control
Readout Name: Foxtail, Giant plant response rating

So what's the measured Foxtail, Giant plant response rating for this one? "Cc1ccc2sc(Br)c(-c3c(O)c(C)nn(C)c3=O)c2c1"
80

So what's the measured Foxtail, Giant plant response rating for this one? "Cc1sc2ccccc2c1-c1c(O)c(Cl)nn(C)c1=O"
80

====

# Tested on: wheat, spring (spring wheat, Triticum aestivum)
# Experiment Summary: Test D controlled growth environment herbicide test, pre- and postemergence
# Format: in vivo
# Condition Notes: Postemergence, 125 g ai/ha; visual rating on scale 0 (no effect) to 100 (complete control), 14 to 21 d
Each record here notes measured Plant response rating, Wheat, Spring.

Before answering, review these 4 worked examples.
CCCC(=O)Oc1c(C)nn(C)c(=O)c1-c1c(C)sc2ccc(C)cc12 20
Cn1nc(Br)c(O)c(-c2cccc3ccccc23)c1=O 15
COC(=O)Oc1c(C)nn(C)c(=O)c1-c1c(C)sc2ccc(C)cc12 15
Cc1nn(C)c(=O)c(-c2c(C)sc3ccc(Br)cc23)c1O 10

So what's the measured Plant response rating, Wheat, Spring for this one? "Cc1cc2ccccc2c(-c2c(O)c(C)nn(C)c2=O)c1C"
15

So what's the measured Plant response rating, Wheat, Spring for this one? "Cc1nn(C)c(=O)c(-c2ccc(F)c3ccccc23)c1O"
30

So what's the measured Plant response rating, Wheat, Spring for this one? "CCc1sc2ccc(C)cc2c1-c1c(O)c(C)nn(C)c1=O"
15

So what's the measured Plant response rating, Wheat, Spring for this one? "CC(=O)Oc1c(C)nn(C)c(=O)c1-c1c(C)sc2ccc(Cl)cc12"
20

So what's the measured Plant response rating, Wheat, Spring for this one? "Cc1ccc2ccccc2c1-c1c(OC(=O)OC(C)C)c(C)nn(C)c1=O"
60
